System: HS 578T
Mark Y for GI50 under 7 µM, N if at or over.

[
  {
    "Compound": "COc1ccc2[nH]c(-c3cc(-c4cc(OC)c(OC)c(OC)c4)n[nH]3)nc2c1",
    "Group Label": "Y"
  },
  {
    "Compound": "COc1cc(-c2cc(-c3nc4cc(Cl)ccc4[nH]3)[nH]n2)cc(OC)c1OC",
    "Group Label": "Y"
  },
  {
    "Compound": "Fc1ccc2[nH]c(-c3cc(-c4ccc5c(c4)OCO5)n[nH]3)nc2c1",
    "Group Label": "N"
  },
  {
    "Compound": "c1ccc2[nH]c(-c3cc(-c4ccc5c(c4)OCO5)n[nH]3)nc2c1",
    "Group Label": "Y"
  },
  {
    "Compound": "COc1cc(-c2cc(-c3nc4cc(Cl)c(Cl)cc4[nH]3)[nH]n2)cc(OC)c1OC [10f]",
    "Group Label": "Y"
  }
]
